Heads up, these compounds all have IC50 values measured for PLAP (Homo sapiens).

Answered examples (2):
compound: O=c1cc(-c2cccc3ccccc23)[nH][nH]1
IC50: > 100 µM

compound: COc1ccc(OC)c(S(=O)(=O)Nc2cnc3ccccc3c2)c1
IC50: > 100 µM

stdin: // fetch PLAP (Homo sapiens) IC50 for O=C(O)c1cc(-c2ccccc2Cl)n[nH]1
stdout: > 100 µM

stdin: Query O=C1C2CC=CCC2C(=O)N1c1n[nH]c(Cc2ccccc2)n1 (centres unmarked) next
stdout: 3.14 µM

stdin: Query COc1ccc(C)cc1S(=O)(=O)Nc1cccnc1 next
stdout: > 100 µM

----------
target: TNAP (Homo sapiens); assay: Luminescent TNAP assay with CDP-star substrate; assay type: biochemical; conditions: read-out: IC50 SAR-Lumi, dry powder compounds, 100 mM DEA
Sequence (P05186 18-501 limits assumed): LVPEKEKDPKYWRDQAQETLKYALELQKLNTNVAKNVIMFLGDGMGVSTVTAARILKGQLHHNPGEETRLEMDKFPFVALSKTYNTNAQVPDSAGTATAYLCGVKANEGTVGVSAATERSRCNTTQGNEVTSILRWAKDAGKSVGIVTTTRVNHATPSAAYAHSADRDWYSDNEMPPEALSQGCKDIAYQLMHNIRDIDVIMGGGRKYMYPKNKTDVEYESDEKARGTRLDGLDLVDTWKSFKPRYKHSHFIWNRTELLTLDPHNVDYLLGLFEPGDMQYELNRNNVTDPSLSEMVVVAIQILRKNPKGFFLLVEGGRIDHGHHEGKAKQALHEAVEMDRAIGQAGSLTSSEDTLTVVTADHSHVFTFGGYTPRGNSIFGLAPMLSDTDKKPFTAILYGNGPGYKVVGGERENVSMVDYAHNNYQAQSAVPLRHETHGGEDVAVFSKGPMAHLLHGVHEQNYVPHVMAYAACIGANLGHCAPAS
Reported pIC50 values are given for each entry in this list.
When answering, recall that pIC50 equals minus log10 of the concentration in mol/L, and write that number alone.

Answered examples (3):
compound: O=C1C2CC=CCC2C(=O)N1c1n[nH]c(Cc2ccccc2)n1 (stereo not shown) [MLS-0067142]
observed-property: pIC50
observed-value: 6.73
//
compound: O=c1cc(-c2cccc3ccccc23)[nH][nH]1 [MLS-0039961]
observed-property: pIC50
observed-value: 5.34
//
compound: COc1ccc(C)cc1S(=O)(=O)Nc1cccnc1 [MLS-0010847]
observed-property: pIC50
observed-value: 6.03

stdin: Report pIC50 for O=C(O)c1cc(-c2ccccc2Cl)n[nH]1 [MLS-0005718] please.
stdout: 6.13

The values you see were collected from paper PMC3403534.
